Source: paper PMC9482650

Biological target: T1, PDZD2_2, O15018
T1 sequence (O15018 329-429, limits assumed, looked up): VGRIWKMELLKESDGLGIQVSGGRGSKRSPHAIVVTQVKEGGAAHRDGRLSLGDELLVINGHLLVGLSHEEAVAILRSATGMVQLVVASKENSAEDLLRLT
Test: holdup assay
Design: key: below the threshold = too weak to quantify, mostly under pKd 3.1 to 4
Conditions: plain residues with an end cap or a label only (N-terminal biotin on a linker: ado-ado)
Threshold rule: pKd greater than or equal to 4 is label 1; below that, label 0.

Q: For this binder, is measured pKd 4 or higher? EIPAQSPTCV [FZD10, Q9ULW2]
Ans: label 1

Q: Record KSRVAFFEEL [NF2, P35240] ; criterion: pKd no lower than 4. Met?
Ans: label 0

Q: Please tell me: is the binder EDLEDEWEVI [TECPR2, O15040] at or over 4 in terms of pKd?
Ans: label 0

Q: Hi, just wondering whether QSYPSKHDYV [CLDN18, P56856] shows pKd of 4 or higher.
Ans: label 1

Q: Assess whether reported pKd for ARGPPRESEV [FAM110D, Q8TAY7] sits at 4 or higher.
Ans: label 1

Q: Has VLYPREGTEV [FOXI1, Q12951] a recorded pKd greater than or equal to 4?
Ans: label 1
